assayed target: T1, cynomolgus CD16 expressed on CHO-K1 cells (cynomolgus, UniProt Q8SPW2 17-254)
T1 construct: whole, on cells; also called cyno CD16; CHO-K1-cynoCD16
T1 sequence (Q8SPW2 17-254): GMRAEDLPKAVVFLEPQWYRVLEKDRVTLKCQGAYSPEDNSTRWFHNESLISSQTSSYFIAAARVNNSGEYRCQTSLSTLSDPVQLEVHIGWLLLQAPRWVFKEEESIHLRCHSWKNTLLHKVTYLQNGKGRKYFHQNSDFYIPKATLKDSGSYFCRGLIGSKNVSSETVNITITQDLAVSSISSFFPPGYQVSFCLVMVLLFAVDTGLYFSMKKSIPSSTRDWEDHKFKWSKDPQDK
test details: flow cytometry, CHO-K1-cyno CD16 cells, geometric mean
value kind: EC50 (read off the curve)

45H6E8-z20p1 (antibody, V domains shown, PTM-removed version of z20) VH: QVQLVQSGAEVKKPGASVKVSCKVSGYTLTDYYMQWVRQAPGKGLEWMGWIDPEQGDTEYAPKFQGRATMTADTSTDTAYMELSSLRSEDTAVYYCTTGGNYVDWGQGTTVTVSS VL: DIQMTQSPSFLSASVGDRVTITCKASQNVGTAVAWYQQKPGKAPKLLIYSASNRYTGVPDRFSGSGSGTDFTLTISSLQPEDFATYFCQQYSSYPLLTFGQGTRLEIK: ~700 pM
45H6E8-z21 (antibody, human IgG1, V domains shown, Human IgG1 LALAPG constant region; also called HU-VH1-8 / HU-VL1-3) VH: QVQLVQSGAEVKKPGASVKVSCKVSGYTLTDYYMQWVRQAPGKGLEWMGWIDPENGDTEYAPKFQGRVTMTADTSTDTAYMELSSLRSEDTAVYYCTTGGNYVDWGQGTTVTVSS VL: DIQMTQSPSFLSASVGDRVTITCKASQNVGTAVAWYQQKPGKAPKLLIYSASNRYTGVPDRFSGSGSGTDFTLTISSLQPEDFATYFCQQYSSYPLLTFGQGTRLEIK: ~700 pM
45H6E8-z19p1 (antibody, V domains shown, PTM-removed (N to Q in VH CDR2) version of z19) VH: QVQLVQSGAEVKKPGASVKVSCKVSGYTLTDYYMQWVRQAPGKGLEWIGWIDPEQGDTEYAPKFQGRVTMTADTSTDTAYMELSSLRSEDTAVYYCTTGGNYVDWGQGTTVTVSS VL: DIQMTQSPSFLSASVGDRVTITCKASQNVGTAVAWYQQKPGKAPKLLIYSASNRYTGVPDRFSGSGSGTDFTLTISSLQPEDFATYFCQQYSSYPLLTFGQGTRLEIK: ~700 pM
